- Tested on: HT-29
- procedure_details: NCI tumour cell line growth inhibition, 48 h
Activity calls are given as the source filed them. No stated cut-off is given here; in the data, active = GI50 up to about 1.1 µM and inactive = higher.
Could you please pick one outcome from this set? active, inactive

Sample answers from the record:
O=C1CC(NCCCNC2CC(=O)c3c(Br)sc(Br)c32)c2c(Br)sc(Br)c21 (stereo unspecified) :: inactive
[O-][S+]1Nc2c(Cl)cc(Cl)c(Cl)c2S1 (stereo unspecified) :: inactive
c1ccc2c(c1)nc1n2CNC1 :: inactive
COc1cccc2c1C(=O)c1c(O)c3c(c(O)c1C2=O)CC(O)(C(=O)CO)CC3OC1CC(N2CCOCC2C#N)C(O)C(C)O1 (stereo unspecified) :: active
O=C1NC(=O)C(=O)C(c2nc3ccccc3s2)C1=O :: inactive
CCOC(=O)c1cnc2cc3cccccc3n2c1=O :: inactive
S=C(Nc1ccccc1)Nc1[nH]c(=S)sc1-c1nc2ccccc2[nH]1 :: inactive
Cc1[nH]c2[nH]c(=S)nc(NC(N)=S)c2c1Cc1ccccc1 :: inactive

Please look at the following compound next.
Which outcome was entered for the compound "CC1(C)[C@H]2Cc3cc4nc5ccccn5c4cc3[C@@H]1C2" in this test? inactive
